assay-system: T1, human B-cell maturation antigen (BCMA) on cells (human, UniProt Q02223 1-184)
T1 construct: Recombinant on HEK293 or K562 cells, or endogenous on cell lines (H929, RPMI 8226, OPM2, MM1S, Daudi); also called hBCMA; huBCMA
T1 chain: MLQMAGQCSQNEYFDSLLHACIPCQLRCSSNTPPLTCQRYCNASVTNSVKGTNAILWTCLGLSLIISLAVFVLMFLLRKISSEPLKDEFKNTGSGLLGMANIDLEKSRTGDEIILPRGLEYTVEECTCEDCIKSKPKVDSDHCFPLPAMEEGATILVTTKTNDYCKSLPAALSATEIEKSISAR
protocol-notes: flow cytometry on BCMA-expressing HEK293 cells vs control cells, crude lysate or bacterial supernatant; clone listed in Table E2
Description: Specific binding of resulting scFv clones to BCMA-expressing HEK293 cells, as compared to control cells not expressing BCMA, was assessed by flow cytometry either with in vitro translated crude cell lysate or with bacterially-produced supernatant.
reported-property: binding result

- binder: "BCMA-48 scFv (scFv) scFv: EVQLVESGGGLVKPGGSLRLSCAASGFTFSDYYMSWIRQAPGKGLEWVSYISSSGSTIYYADSVKGRFTISRDNAKNSLYLQMNSLRAEDTAVYYCAKVDGPPSFDIWGQGTMVTVSSGGGGSGGGGSGGGGSQPVLTQPPSVSVAPGKTATITCGGNNIGSKSVHWYQRKPGQGPVVVIQYDTDRPSGIPERFSGSNSGNTATLTISRVEAGDEGDYYCQVWDSSSDHWVFGGGTKLTVL"
  endpoint-value: "binds"
- binder: "BCMA-6 scFv (scFv) scFv: QVQLVQSGGGLVQPGRSLRLSCTASGFTFGDYAMSWFRQAPGKGLEWVGFIRSKAYGGTTEYAASVKGRFTISRDDSKSIAYLQMNSLKTEDTAVYYCAAWSAPTDYWGQGTLVTVSSGGGGSGGGGSGGGGSDIVMTQSPSSLSVSVGERVTITCRASQSISNSLAWYKQRPGEAPKLLIHAASNVEDGVPSRFSGRGSGTVFTLAISNVQPEDFATYYCQQSHMYPPTFGGGTKVEIK"
  endpoint-value: "binds"
- binder: "BCMA-46 scFv (scFv) scFv: QVQLVQSGGGLVQPGRSLRLSCTASGFTFGDYAMSWFRQAPGKGLEWVGFIRSKAYGGTTEYAASVKGRFTISRDDSKSIAYLQMNSLKTEDTAVYYCAAWSAPTDYWGQGTLVTVSSGGGGSGGGGSGGGGSDIVMTQSPDSLVVSLGERATINCKSSQSVLHSSNNKNYLAWYQQKPGQPPKLLIYWASTRESGVPDRFSGSGSGTDFTLTISSLQAEDVAVYYCQQYYTTPLTFGGGTKVEIK"
  endpoint-value: "binds"
